Measured values drawn from patent US20210253725A1 for this set.

- ASSAYED SYSTEM: T1, CD27 expressed on the cell surface of HT1080_CD27 cells (human, UniProt P26842 20-260); note: test concentration or dose not given here
- T1 sequence (looked up): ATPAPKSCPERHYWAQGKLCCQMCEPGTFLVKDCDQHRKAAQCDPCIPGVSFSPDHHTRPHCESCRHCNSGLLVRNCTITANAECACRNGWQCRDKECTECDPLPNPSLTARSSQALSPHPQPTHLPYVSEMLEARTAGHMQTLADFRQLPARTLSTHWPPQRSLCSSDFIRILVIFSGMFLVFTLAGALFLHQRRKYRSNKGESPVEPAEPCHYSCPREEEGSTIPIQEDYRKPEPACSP
- ASSAY PROTOCOL: cell-based or functional assay
# Functional assay IL-8 listing for each entry below

BINDER | Functional assay IL-8 [abs. corr.]
P018.S.03.A.D04 (antibody, V domains shown, V regions on human Ig constant parts; also called AB27_49) VH: QEHLEESGGGLVQPGGTLTLTCKASGIDFSSSYYMCWVRQAPGKGLERLACTYNRDGSTYYASWAKGRFTISKTSSTTVTLQMTSLTVADTATYFCARDDGYPGSGYVLNLWGPGTLVTVSS VL: DVVMTQTPASVEAAVGGTVTIRCQASQSVSNYFSWYQQKPGQPPKLLIYGASNLESGVPSRFKGSGSGTEFTLTISGVQSDDAATYYCQGGYYSSNTDNNSFGGGTEVVVK | 0.513
P018.S.07.A.A02 (antibody, V domains shown, V regions on human Ig constant parts; also called AB27_113) VH: QSVEESGGRLVTPGTPLTLTCTVSGFSLSSYVMSWVRQAPGKGLEWIGYIDYGGAPYYASWAKGRFTISKTSTTVELKITSPTIEDTATYFCARGGYGGYVLVTVLWGPGTLVTVSS VL: DVVMTQTPASVSEPVGGTVTIKCQASQNIYSSLAWYQQKPGQPPKLLIYQASRLASEVPSRFKGSGSGTEFTLTISDLESADAATYYCQTYYGGSTYGNGFGGGTEVVVE | 0.059
P018.S.10.A.B02 (antibody, V domains shown, V regions on human Ig constant parts; also called AB27_167) VH: QSVEESGGRLVTPGGSLTLSCTVNGFSLSSHGVSWVRQAPGKGLEWIGIIYVISGHAYYASWAKGRFTISKTSTTVDLKIASPTTEDTATYFCARGNYGSDSGPNFTRLDLWGQGTLVTVSS VL: AQVLTQTPSPVSATVGGTLTINCQASQSLYNNDYLAWYQQKPGQPPKLLIYLASTLASGVSSRFKGSGSGTQFTLTISGVQSDDAATYYCQGEFSCSSGDCLAFGGGTEVVVK | 0.47
P018.S.04.A.E05 (antibody, V domains shown, V regions on human Ig constant parts; also called AB27_76) VH: QSLEESGGDLVKPGASLTLTCTASGFSFSSDYYMCWVRQAPGKGLEWIACISAGSSGSIYYASWAKGRFTISKTSSTTVTLQMTSLTAADTATYFCAREASDSIYYPIFNLWGPGTLVTVSS VL: AAVLTQTPSPVSAAVGGTVSISCQSSKSVYNNNALSWFQQKPGQPPKLLIYGASTLPSRVPSRFKGSGSGTQFTLTISDVQSDDAATYYCIGGYSSSSDTNAFGGGTEVVVK | 0.747
P018.S.09.A.F06 (antibody, V domains shown, V regions on human Ig constant parts; also called AB27_158) VH: QSVEESGGRLVTPGGSLTLTCSVSGIDLSSYAMNWVRQAPGKGLEWIGIISTGGSTYYANWAKGRFTISKTSTTVDLKITSPTTEDTATYICARDVGGTTVPYYFDLWGPGTLVTVSS VL: AYDMTQTPASMEVAVGGTVTIKCQASESISSWLAWYQQKPGQPPKPLIYEASRLASGVPSRFKGSGSGTEFTLTISGVESADAATYYCQQGYGSSDVHNIFGGGTEVVVK | 0.58
